Record form. Attribute: pIC50. Fill in for each entry.
TARGET OR SYSTEM: SIK3 (Homo sapiens, UniProt Q9Y2K2)
Construct: purchased SignalChem S12-11G-100
Sequence (Q9Y2K2 59-365 limits assumed): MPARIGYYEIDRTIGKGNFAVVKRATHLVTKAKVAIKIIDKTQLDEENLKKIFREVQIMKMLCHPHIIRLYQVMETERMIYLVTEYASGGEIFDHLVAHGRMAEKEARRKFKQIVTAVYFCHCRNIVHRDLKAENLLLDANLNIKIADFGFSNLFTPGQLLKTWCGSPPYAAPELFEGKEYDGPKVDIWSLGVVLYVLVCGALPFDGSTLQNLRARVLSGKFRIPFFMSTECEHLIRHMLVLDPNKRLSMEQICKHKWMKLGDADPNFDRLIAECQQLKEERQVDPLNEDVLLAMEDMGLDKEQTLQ
ASSAY OVERVIEW: ADP-Glo kinase assay, SIK3
Format: biochemical
pIC50: −log10 of the molar value.

Here is how some compounds turned out for pIC50.
{"COMPOUND": "COc1cc(-c2cnc3cc(C(C)(O)CN4CC(F)(F)C4)ccn23)cc(OC(F)F)c1C(=O)NC1CC1 (stereo not shown) [Cpd 191]", "pIC50": "7.00 to 8.00"}
{"COMPOUND": "COc1cc(-c2cnc3cc(C(C)(C)C#N)ccn23)cc(OC(F)F)c1C(=O)N1CCC1C (stereo not shown) [Cpd 104]", "pIC50": "< 6.30"}
{"COMPOUND": "COCC1(NC(=O)c2c(OC)cc(-c3cnc4cc(C(C)(C)C#N)ccn34)cc2OC(F)F)CC1 [Cpd 81]", "pIC50": "< 6.30"}

Attention now shifts to the item below.
stdin: In one line, give reported pIC50 of the entry COc1cc(-c2cnc3cc(C(F)(F)CO)ccn23)cc(OC(F)F)c1C(=O)NC1CC1 [Cpd 136] .
stdout: 8.00 to 11.00

###

TARGET OR SYSTEM: SIK3 (Homo sapiens, UniProt Q9Y2K2)
Construct: purchased SignalChem S12-11G-100
ASSAY OVERVIEW: ADP-Glo kinase assay, SIK3
Assay type: biochemical
ENDPOINT NAME: IC50

{"SMILES CODE": "CCNC(=O)c1c(OC)cc(-c2cnc3cc(C(C)(C)C#N)ccn23)cc1OC", "IC50": "10 to 100 nM"}
{"SMILES CODE": "COc1cc(-c2cnn3cc(C4(N)CCC4)ccc23)cc(OC(F)F)c1C(=O)N[C@@H]1C[C@@H]1F", "IC50": "0.01 to 10 nM"}
{"SMILES CODE": "COc1cc(-c2cnn3cc(C4CCOCC4)ccc23)cc(OC(F)F)c1C(=O)NC1CC1", "IC50": "0.01 to 10 nM"}
{"SMILES CODE": "COc1cc(-c2cnc3cc(C(C)(C)C#N)ccn23)cc(OC(F)F)c1C(=O)N1CC(O)(C2CC2)C1", "IC50": "10 to 100 nM"}
{"SMILES CODE": "COc1cc(-c2cnc3cc(C(C)(C)C#N)ccn23)cc(OC(F)F)c1C(=O)NC1CS(=O)(=O)C1", "IC50": "10 to 100 nM"}

Batch of 3 molecules: report IC50 for each.
1. COc1cc(-c2cnc3cc(C(C)(C)C#N)ccn23)cc(OC(F)F)c1C(=O)N1CCC(O)CC1
2. CCOC(C)(C)c1ccn2c(-c3cc(OC)c(C(=O)NC4CC4)c(OC(F)F)c3)cnc2c1
3. COc1cc(-c2cnc3cc(C4CCN(C(=O)OC(C)(C)C)CC4)ccn23)cc(OC(F)F)c1C(=O)NC1CC1

stdout:
1. > 500 nM
2. 10 to 100 nM
3. 0.01 to 10 nM

###

Can you tell me pIC50 for the items I'm about to list?
TARGET OR SYSTEM: SIK2 (Homo sapiens)
Construct: purchased ThermoFisher Scientific PV4792
Sequence (Q9H0K1 whole entry): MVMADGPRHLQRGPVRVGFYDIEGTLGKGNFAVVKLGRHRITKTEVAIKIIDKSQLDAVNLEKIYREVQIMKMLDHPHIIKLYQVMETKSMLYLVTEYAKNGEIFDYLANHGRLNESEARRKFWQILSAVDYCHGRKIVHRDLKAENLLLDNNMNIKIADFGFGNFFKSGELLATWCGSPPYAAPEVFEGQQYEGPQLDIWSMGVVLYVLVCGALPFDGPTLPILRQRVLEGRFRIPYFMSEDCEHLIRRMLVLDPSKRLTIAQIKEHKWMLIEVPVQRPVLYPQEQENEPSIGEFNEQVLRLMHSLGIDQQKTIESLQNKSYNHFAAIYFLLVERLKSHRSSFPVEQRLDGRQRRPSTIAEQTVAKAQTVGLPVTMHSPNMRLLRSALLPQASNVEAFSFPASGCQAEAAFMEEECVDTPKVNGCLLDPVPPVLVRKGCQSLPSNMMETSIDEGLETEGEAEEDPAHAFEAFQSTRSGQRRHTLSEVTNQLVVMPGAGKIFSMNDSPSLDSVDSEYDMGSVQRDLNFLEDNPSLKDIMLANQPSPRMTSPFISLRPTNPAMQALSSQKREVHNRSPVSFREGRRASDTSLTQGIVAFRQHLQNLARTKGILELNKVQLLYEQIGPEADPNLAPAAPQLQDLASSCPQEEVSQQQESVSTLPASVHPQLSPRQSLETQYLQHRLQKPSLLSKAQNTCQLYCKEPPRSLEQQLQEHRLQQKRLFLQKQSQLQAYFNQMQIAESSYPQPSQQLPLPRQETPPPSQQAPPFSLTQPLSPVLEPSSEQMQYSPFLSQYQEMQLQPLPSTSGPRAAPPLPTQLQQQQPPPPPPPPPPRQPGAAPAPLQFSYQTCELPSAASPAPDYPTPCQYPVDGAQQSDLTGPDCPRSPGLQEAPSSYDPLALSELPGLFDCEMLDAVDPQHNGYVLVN
ASSAY OVERVIEW: ADP-Glo kinase assay, SIK2
Format: biochemical
pIC50: −log10 of the molar value.

These recorded examples may help you get a feel for the data.
{"COMPOUND": "COc1cc(-c2cnc3cc(C4(F)COC4)ccn23)cc(OC(F)F)c1C(=O)N[C@@H]1C[C@@H]1F", "pIC50": "7.00 to 8.00"}
{"COMPOUND": "COc1cc(-c2cnc3cc(C(C)(C)C#N)ccn23)cc(OC(F)F)c1C(=O)N1CC(NC(=O)OC(C)(C)C)C1", "pIC50": "< 6.30"}
{"COMPOUND": "COc1cc(-c2cnc3cc(C(C)N4CCOCC4)ccn23)cc(OC(F)F)c1C(=O)NC1CC1 (centres unmarked)", "pIC50": "< 6.30"}
{"COMPOUND": "COc1cc(-c2cnc3cc(C(C)(C)C#N)ccn23)cc(OC(F)F)c1C(=O)N1CCC(O)CC1", "pIC50": "< 6.30"}
{"COMPOUND": "COc1cc(-c2cnc3cc(C(C)(C)C#N)ccn23)cc(OC(F)F)c1C(=O)NC(C1CC1)C(F)(F)F (centres unmarked)", "pIC50": "< 6.30"}
{"COMPOUND": "COc1cc(-c2cnc3cc(C4(C#N)CNC4)ccn23)cc(OC(F)F)c1C(=O)NC1CC1", "pIC50": "< 6.30"}
{"COMPOUND": "COc1cc(-c2cnn3cc(C4COC4)ccc23)cc(OC(F)F)c1C(=O)NC1CC1", "pIC50": "6.30 to 7.00"}
{"COMPOUND": "CCC1(NC(=O)c2c(OC)cc(-c3cnc4cc(C(C)(C)C#N)ccn34)cc2OC(F)F)CC1", "pIC50": "< 6.30"}

# per-item lookup of pIC50; items listed below
1. COc1cc(-c2cnn3cc(C(C)(C)CO)ccc23)cc(OC(F)F)c1C(=O)N[C@@H]1C[C@@H]1F
2. COc1cc(-c2cnc3cc(C(C)(C)C#N)ccn23)cc(OC(F)F)c1C(=O)N1CCN(C)CC1
3. COc1cc(-c2cnc3cc(C4(F)COC4)ccn23)cc(OC(F)F)c1C(=O)NC1CC1
4. COc1cc(-c2cnc3cc(C(C)(C)C#N)ccn23)cc(OC)c1C(=O)N1CC(F)(F)C1
5. COc1cc(-c2cnc3cc(C4(C#N)CC4)ccn23)cc(OC(F)F)c1C(=O)NC1CC1
6. COc1cc(-c2cnc3cc(C(C)N(C)CCO)ccn23)cc(OC(F)F)c1C(=O)NC1CC1 (centres unmarked)
7. COc1cc(-c2cnc3cc(C4(C#N)CCC4)ccn23)cc(OC(F)F)c1C(=O)NC1CC1
8. COc1cc(-c2cnn3cc(C(C)(C)C(N)=O)ccc23)cc(OC(F)F)c1C(=O)NC1CC1

stdout:
1: < 6.30; 2: < 6.30; 3: 6.30 to 7.00; 4: < 6.30; 5: 7.00 to 8.00; 6: < 6.30; 7: 6.30 to 7.00; 8: < 6.30

# batch size: 7; output pIC50 per entry
1. COc1cc(-c2cnc3cc(C4(C#N)CCOCC4)ccn23)cc(OC)c1C(=O)NCC(F)(F)F
2. COc1cc(-c2cnc3cc(C4CCN(C)CC4)ccn23)cc(OC(F)F)c1C(=O)NC1CC1
3. COc1cc(-c2cnc3cc(C(C)(C)CN4CCOCC4)ccn23)cc(OC(F)F)c1C(=O)NC1CC1
4. COc1cc(-c2cnc3cc(C(C)(C)C#N)ccn23)cc(OC(F)F)c1C(=O)N[C@H]1CCCC[C@@H]1N
5. COc1cc(-c2cnc3cc(C(O)C4CCC4)ccn23)cc(OC(F)F)c1C(=O)NC1CC1 (centres unmarked)
6. CCC(O)(CC)c1ccn2c(-c3cc(OC)c(C(=O)NC4CC4)c(OC(F)F)c3)cnc2c1
7. COc1cc(-c2cnc3cc(C4(O)CCC4)ccn23)cc(OC(F)F)c1C(=O)NC1CC1

stdout:
1: < 6.30; 2: 7.00 to 8.00; 3: < 6.30; 4: < 6.30; 5: < 6.30; 6: < 6.30; 7: 6.30 to 7.00
